# systemTested: CD73 activity in MDA-MB-231-GFP cells (Homo sapiens, UniProt P21589)
# Construct: endogenous in cells; host or cells: MDA-MB-231-GFP cells
# Sequence (P21589 27-549): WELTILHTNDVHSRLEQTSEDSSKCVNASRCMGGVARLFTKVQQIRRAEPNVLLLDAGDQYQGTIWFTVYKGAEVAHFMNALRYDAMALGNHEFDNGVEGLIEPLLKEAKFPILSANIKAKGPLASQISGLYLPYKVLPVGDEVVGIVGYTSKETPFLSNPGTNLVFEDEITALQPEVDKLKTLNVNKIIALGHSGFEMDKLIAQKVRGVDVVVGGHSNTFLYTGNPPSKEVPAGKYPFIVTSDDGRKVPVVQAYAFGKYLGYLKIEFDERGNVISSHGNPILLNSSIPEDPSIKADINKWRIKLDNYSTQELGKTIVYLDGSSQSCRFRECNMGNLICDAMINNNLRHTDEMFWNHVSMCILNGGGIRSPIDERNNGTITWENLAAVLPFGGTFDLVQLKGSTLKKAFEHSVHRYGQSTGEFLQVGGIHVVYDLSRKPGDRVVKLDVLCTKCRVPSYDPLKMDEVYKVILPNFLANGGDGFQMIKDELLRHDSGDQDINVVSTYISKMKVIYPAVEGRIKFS
# experimentalProtocol: MDA-MB-231 Cell Based CD73 Activity Assay (DMEM)
# testContext: 3000 cells per well, DMEM medium with 10% human plasma, overnight compound treatment, AMP 200 uM
# Method: MDA-MB-231 Cell Based CD73 Activity Assay (DMEM) MDA-MB-231-GFP cells were seeded in 384-well plates (Greiner 781946) at a density of 3000 cells per well in 50 μL of DMEM medium with 10% HP (human plasma). Cells were plated into assay plate with compounds pre-spotted, for an overnight compound treatment. 50 uL of 400 uM AMP (final concentration will be 200 uM) was added using Bio-tek dispenser. Plates were incubated for 100 mins. […] The samples were analyzed using Rapid fire.
experimentalEndpoint: EC50 (nM)

O=c1[nH]cc(-c2cc([C@H]3C[C@@H]3c3ccnc(C(F)(F)F)c3)c3nccn3n2)c(=O)[nH]1 (racemic) ... 27.8
O=c1[nH]cc(-c2cc([C@H]3C[C@@H]3c3ccc(OCC(F)F)cn3)c3nccn3n2)c(=O)[nH]1 (racemic) ... 2.04
O=c1[nH]cc(-c2cc([C@H]3C[C@@H]3c3nc(C(F)(F)F)cs3)c3nccn3n2)c(=O)[nH]1 (racemic) ... 67.6
O=C1N(CC(F)(F)F)c2cc([C@H]3C[C@@H]3c3cc(-c4c[nH]c(=O)[nH]c4=O)nn4ccnc34)ccc2C12CC2 (single isomer, unassigned) ... 0.1
O=c1[nH]cc(-c2cc([C@@H]3C[C@H]3c3ccc(F)cc3F)c3nccn3n2)c(=O)[nH]1 (racemic) ... 4.83
CC1(C)CN(C(=O)c2cccc([C@H]3C[C@@H]3c3cc(-c4c[nH]c(=O)[nH]c4=O)nn4ccnc34)c2)C1 (racemic) ... 2.81
O=c1[nH]cc(-c2cc([C@H]3C[C@@H]3c3ccncc3F)c3nccn3n2)c(=O)[nH]1 (racemic) ... 11
COC(=O)c1cccc([C@H]2C[C@@H]2c2cc(-c3c[nH]c(=O)[nH]c3=O)nn3ccnc23)c1 (racemic) ... 11.7
O=c1[nH]cc(-c2cc([C@H]3C[C@@H]3c3ccncc3)c3ncc(F)n3n2)c(=O)[nH]1 (racemic) ... 6.42
O=C(c1cccc([C@H]2C[C@@H]2c2cc(-c3c[nH]c(=O)[nH]c3=O)nn3ccnc23)c1)N1CCC(F)(F)C1 (racemic) ... 1.41

[I] CN(C)C(=O)c1cccc([C@H]2C[C@@H]2c2cc(-c3c[nH]c(=O)[nH]c3=O)nn3ccnc23)c1 (racemic)
[II] O=C(NCC(F)(F)F)OC1CN(c2cc(-c3c[nH]c(=O)[nH]c3=O)nn3ncnc23)CC1(F)F (racemic)
[III] O=C(c1ccc([C@H]2C[C@@H]2c2cc(-c3c[nH]c(=O)[nH]c3=O)nn3ccnc23)cc1)N1C[C@@H](F)[C@H](F)C1 (racemic)
Sort (3 compounds) by EC50: min first. Reply with the labels, ordered as the question asks. II, I, III
(II: 0.43 nM, I: 12.5 nM, III: 24.5 nM)

Data provenance: patent US12110294B2
